Molecular target: murine E^d MHC class II allele (Mus musculus, UniProt P01904+P01915)
Sequence (P01904 26-255): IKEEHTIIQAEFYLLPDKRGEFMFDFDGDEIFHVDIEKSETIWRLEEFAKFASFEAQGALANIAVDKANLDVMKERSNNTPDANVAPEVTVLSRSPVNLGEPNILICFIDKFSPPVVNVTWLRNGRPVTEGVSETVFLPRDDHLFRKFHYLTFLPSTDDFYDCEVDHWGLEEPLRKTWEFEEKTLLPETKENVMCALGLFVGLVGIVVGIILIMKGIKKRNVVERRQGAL
Sequence (P01915 27-264 limits assumed): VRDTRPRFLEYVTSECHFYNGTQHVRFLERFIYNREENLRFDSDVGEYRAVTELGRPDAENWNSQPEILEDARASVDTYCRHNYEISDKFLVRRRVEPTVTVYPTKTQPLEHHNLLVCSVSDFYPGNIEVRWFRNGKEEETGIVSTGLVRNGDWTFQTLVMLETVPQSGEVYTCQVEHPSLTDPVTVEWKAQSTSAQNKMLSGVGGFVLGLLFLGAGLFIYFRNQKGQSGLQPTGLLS
Test: antigenic peptide prepulse assay, E^d allele (fixed APC prepulsed with HEL106-116)
Assay type: cell-based
Parameters: The A20 and CH27 B cell lymphoma lines express H-2^d and H-2^k alleles, respectively; endogenous in cells; host or cells: A20 B cell lymphoma (mitomycin C-treated or paraformaldehyde-fixed)
Details: Table 20; AE peptide 64 μM; prepulse 3 μM antigenic peptide; supernatant 1:2
Non-standard residues stand in square brackets, D forms with d. hArg = N=C(N)NCCCC[C@H](N)C(=O)O; Cit = NC(=O)NCCC[C@H](N)C(=O)O; Orn = NCCC[C@H](N)C(=O)O
We begin with a simple list: items and their reported Activity in antigenic peptide prepulse assay, E^d (baseline = 1.00).
Format: numeric value only, no unit, no commentary.

[[record]]
substance = "Ac-Y[hArg]MKLPKSAK-NH2 [AE132]"
experimental_value = 0.58

[[record]]
substance = "Ac-Y Q MKLPKSAK-NH2 [AE138]"
experimental_value = 0.73

[[record]]
substance = "Ac-Y[Orn]MKLPKSAK-NH2 [AE130]"
experimental_value = 0.79

[[record]]
substance = "Ac-YRMKLPKSAK-NH2 [AE109]"
experimental_value = 0.28

[[record]]
substance = "Ac-Y[Cit]MKLPKSAK-NH2 [AE131]"
experimental_value = 0.69


Given the entry Ac-Y Y MKLPKSAK-NH2 [AE140] , what Activity in antigenic peptide prepulse assay, E^d (baseline = 1.00) was observed with murine E^d MHC class II allele (Mus musculus, UniProt P01904+P01915)?
0.78

For Ac-Y F MKLPKSAK-NH2 [AE139] then?
0.67

For Ac-Y K MKLPKSAK-NH2 [AE134] then?
0.60

For YRMKLPKSAKPVSQMR [AE101] then?
0.25

For Ac-Y L MKLPKSAK-NH2 [AE142] then?
0.86

For Ac-Y E MKLPKSAK-NH2 [AE136] then?
0.54

For Ac-Y H MKLPKSAK-NH2 [AE133] then?
0.39

For Ac-Y N MKLPKSAK-NH2 [AE137] then?
0.57
